Origin of the recorded values: patent US20220257704A1

Test system: T24 cell line
assay_info: MTT cytotoxicity assay, 48 h, alone and in combination (IC50 and Combination Index)
Format: cell-based
assay_setup: SEQ ID NO: 1 at 20 μg/mL; read-out: IC50 of Cisplatin
property: IC50 (nM)
Please give a number only; it is taken to be in nM.

Exercise: Which IC50 is reported for this compound? N.N.[Cl][Pt][Cl] [Cisplatin, reference compound]
Solution: 34.4

---

Tested on: HT-29 cell line
assay_info: MTT cytotoxicity assay, 48 h, alone and in combination (IC50 and Combination Index)
Format: cell-based
assay_setup: Homo sapiens, HT-29, SEQ ID NO: 1 at 40 μg/mL; read-out: IC50 of Irinotecan
property: IC50 (µM)
Please give a number only; it is taken to be in µM.

Exercise: Which IC50 is reported for this compound? CCc1c2c(nc3ccc(OC(=O)N4CCC(N5CCCCC5)CC4)cc13)-c1cc3c(c(=O)n1C2)COC(=O)[C@]3(O)CC [Irinotecan, reference compound]
Solution: 0.278
